Where these numbers come from: PubChem BioAssay (NCI)

# assay.text: NCI Yeast Anticancer Drug Screen. Data for the bub3 strain (AID 167)
# assay.conditions: S. cerevisiae bub3 mutant strain, at 50.0 µM, hits give high values
This is part of a sample that, as a whole, favours compounds with a hit. Of some 79,000 tested, about 15% had one in any assay.
Use Fulfilled when the recorded growth inhibition is no lower than 20%; use Not fulfilled when it is lower.

For orientation, consider the following solved cases.
| molecule | label.value |
| --- | --- |
| Cc1ccc(NC(=O)C(C)S)cc1 (stereo unspecified) | Fulfilled |
| CC(=O)OCC1OC(OC(C)=O)C(N(C)C(C)=O)C(OC(C)=O)C1OC(C)=O (stereo unspecified) | Not fulfilled |
| CNC1C(O)C(OC2C(N)CC(N)C(OC3OC(CN)C(O)C(O)C3O)C2O)OCC1(C)O (stereo unspecified) | Not fulfilled |
| Cc1cc2c(cc1Cl)S(=O)(=O)OC(c1ccc([N+](=O)[O-])cc1)=N2 | Not fulfilled |
| O=C(CCc1ccc(O)c(O)c1)NCCc1cc(O)cc(OCc2ccccc2)c1 | Not fulfilled |

Task item: hey, is growth inhibition for this one >= 20%? `NC(=O)N(CCO)/N=C/c1ccc([N+](=O)[O-])o1`
Reply: Fulfilled
